Numbers sourced from patent US11285135B2.

- test system: GDP-bound protein (aa 1-169), containing both G12C and C118A amino acid substitutions (Homo sapiens, UniProt P01116, C118A/G12C)
- Sequence (P01116 1-169 isoform P01116-2 G12C/C118A): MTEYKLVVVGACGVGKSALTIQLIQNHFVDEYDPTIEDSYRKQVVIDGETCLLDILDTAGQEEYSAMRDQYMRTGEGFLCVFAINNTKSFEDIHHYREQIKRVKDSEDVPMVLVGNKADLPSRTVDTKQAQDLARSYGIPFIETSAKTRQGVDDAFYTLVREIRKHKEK
- method: Coupled Nucleotide Exchange Assay (SOS-mediated nucleotide exchange, AlphaScreen)
- Assay type: biochemical
- measurement setup: 2 hours compound pre-incubation
parameter: Coupled exchange IC50 (µM)
Write it as a number; the unit µM goes unstated.

C=CC(=O)N1CCN(c2snc3c(F)c(-c4c(O)cccc4F)c(Cl)cc23)C(C(F)F)C1 (racemic)
0.301
C=CC(=O)N1CCN(c2nnc(-c3ccccc3OC)c3cc(-c4c(O)cccc4F)c(Cl)cc23)CC1
1.93
C=CC(=O)N1CCN(c2nc(=O)n(-c3ccncc3C3CC3)c3cc(-c4c(O)cccc4F)c(Cl)cc23)CC1
0.237

Recorded result, C=CC(=O)N1CCN(c2nc(=O)n(-c3ccccc3C(C)C)c3cc(-c4c(C)ccc5[nH]ncc45)c(Cl)cc23)CC1 (single isomer, unassigned) [Example 11-1-1] , Coupled exchange IC50: 0.231

Recorded result, C=CC(=O)N1CCN(c2nnc(OC)c3cc(Cl)c(-c4c(O)cccc4F)cc23)CC1 (single isomer, unassigned) , Coupled exchange IC50: 103
